Test: Cytotoxicity against human HeLa cells assessed as cell survival at 200 uM up to 24 hrs by MTT assay
Format: cell-based
Conditions: read-out: Survival
ATTRIBUTE_MEASURED: viability at 24 h, 200 µM (%)

O=C(c1cncnc1)c1cc(F)c(Cl)cc1O :: 84

###

Tested on: Escherichia coli
Experiment: Antibacterial activity against Escherichia coli MTCC-119 after overnight incubation by two-fold broth dilution method
Format: functional
ATTRIBUTE_MEASURED: MIC (mg/L)

O=C(c1cncnc1)c1cc(Cl)ccc1O :: 68
O=C(c1cncnc1)c1ccccc1O :: 64

###

Assay: Cytotoxicity against human HeLa cells assessed as cell survival at 20 uM after 24 hrs by MTT assay
Format: cell-based
Details: read-out: Survival
ATTRIBUTE_MEASURED: viability at 24 h, 20 µM (%)

O=C(c1cncnc1)c1cc(F)c(Cl)cc1O :: 98

###

Reported MIC values for a set of compounds
Tested on: Pseudomonas aeruginosa
Assay: Antibacterial activity against Pseudomonas aeruginosa MTCC-741 after overnight incubation by two-fold broth dilution method
Type: functional
ATTRIBUTE_MEASURED: MIC

O=C(O)c1cn(C2CC2)c2cc(N3CCNCC3)c(F)cc2c1=O :: 0.7 µg/mL
O=C(c1cncnc1)c1cc(F)c(Cl)cc1O :: 70 µg/mL
O=C(c1cncnc1)c1ccccc1O :: 66 µg/mL
O=C(c1cncnc1)c1cc(Cl)ccc1O :: 96 µg/mL
Cc1ccc(O)c(C(=O)c2cncnc2)c1 :: 60 µg/mL
O=C(c1cncnc1)c1cc(F)ccc1O :: > 100 µg/mL

###

Test system: Escherichia coli
Experiment: Antibacterial activity against Escherichia coli MTCC-119 after overnight incubation by two-fold broth dilution method
Assay type: functional
ATTRIBUTE_MEASURED: MIC

O=C(c1cncnc1)c1cc(F)ccc1O :: > 100 mg/L
O=C(c1cncnc1)c1cc(F)c(Cl)cc1O :: > 100 mg/L
Cc1ccc(O)c(C(=O)c2cncnc2)c1 :: > 100 mg/L
